The molecules listed here are annotated with their pKi.
Biological target: human recombinant dopamine D4.2 receptor (Homo sapiens, UniProt P21917, DEL265-296)
Construct: expressed in transfected cells; host or cells: CHO K1
Sequence (P21917 with tags, fused parts or gaps DEL265-296): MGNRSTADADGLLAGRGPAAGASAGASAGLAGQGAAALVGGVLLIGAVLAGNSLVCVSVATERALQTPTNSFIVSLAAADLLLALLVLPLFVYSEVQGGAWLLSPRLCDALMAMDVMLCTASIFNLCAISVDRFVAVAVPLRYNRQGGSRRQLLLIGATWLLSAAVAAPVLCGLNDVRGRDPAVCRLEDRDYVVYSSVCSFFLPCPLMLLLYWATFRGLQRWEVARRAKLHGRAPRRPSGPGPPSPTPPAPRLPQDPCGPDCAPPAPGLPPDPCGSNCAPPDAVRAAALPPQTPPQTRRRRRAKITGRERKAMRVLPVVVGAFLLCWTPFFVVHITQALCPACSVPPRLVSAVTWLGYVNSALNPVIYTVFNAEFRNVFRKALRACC
Assay: Receptor binding assay, D4.2 dopamine receptor ([3H]spiperone competition, CHO K1 cell membranes)
Scale: negative log10 of molar concentration, which is what pKi denotes.

>>> measured_value("N#Cc1ccc(N2CCN(Cc3ccc4ccccc4n3)CC2)cc1Cl")
7.00

get_value(item= `Fc1ccc(C2=CCN(Cc3ccc4ccccc4n3)CC2)cc1` , readout=pKi) returns 7.84

----------
Molecular target: human dopamine D2 (Long form) receptors (Homo sapiens)
Sequence (P14416 whole entry): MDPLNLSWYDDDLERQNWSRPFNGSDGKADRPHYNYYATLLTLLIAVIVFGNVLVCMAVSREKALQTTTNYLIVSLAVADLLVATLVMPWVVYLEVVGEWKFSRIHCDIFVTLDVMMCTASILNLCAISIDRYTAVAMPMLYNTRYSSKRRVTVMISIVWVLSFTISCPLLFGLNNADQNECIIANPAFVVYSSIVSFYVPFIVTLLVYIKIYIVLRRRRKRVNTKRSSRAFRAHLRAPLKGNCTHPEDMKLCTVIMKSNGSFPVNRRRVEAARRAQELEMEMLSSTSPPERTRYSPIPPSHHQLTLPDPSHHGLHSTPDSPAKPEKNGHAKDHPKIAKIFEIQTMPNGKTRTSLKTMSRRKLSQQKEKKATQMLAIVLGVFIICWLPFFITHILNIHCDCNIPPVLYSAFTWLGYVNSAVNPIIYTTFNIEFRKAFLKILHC
Test: biochemical
Conditions: 0.2 nM [3H]spiperone, CHO K1 membranes, 60 min, 25° C.; apparent Ki from IC50 (Cheng-Prusoff)
MEASUREMENT_LABEL: Ki (nM)
# number only, unit nM dropped from output

Reported Ki for `c1ccc(N2CCN(Cc3ccc4ncccc4c3)CC2)cc1` was 1380

Field Ki (entry `Fc1ccccc1N1CCN(Cc2cnc3ccccc3c2)CC1` ) reads 512

// sample `c1ccc(N2CCN(Cc3cnc4ccccc4c3)CC2)cc1` , its Ki was 1790

----------
// values below are reported Ki
Biological target: human recombinant dopamine D4.2 receptor (Homo sapiens, UniProt P21917, DEL265-296)
Construct: expressed in transfected cells; host or cells: CHO K1
Test: Receptor binding assay, D4.2 dopamine receptor ([3H]spiperone competition, CHO K1 cell membranes)
Conditions: 0.2 nM [3H]spiperone, CHO K1 membranes, 60 min, 25° C.; apparent Ki from IC50 (Cheng-Prusoff); read-out: D4 Ki
Procedure: A cell line expressing human dopamine D2 (Long form) receptors was purchased from Oregon Health Sciences University, Portland, Oreg. The D2 receptor cDNA was subcloned into an expression vector, pRc/CMV. […] Saturation and competition binding data were analyzed using an iterative nonlinear least-square curve-fitting Ligand program. […] To allow these calculations, Kd values were measured for the interaction of various ligands with the receptor. […]
Your answer should be a plain number; it is taken to be in nM.

Sample records with Ki:
>>> measured_value("Cc1ccc(N2CCN(Cc3ccc4ccccc4n3)CC2)cc1C")
13
>>> measured_value("OCc1ccc(N2CCN(Cc3ccc4ccccc4n3)CC2)cc1Cl")
8.27
>>> measured_value("Cc1cccc(N2CCN(Cc3ccc4ccccc4n3)CC2)c1")
127
>>> measured_value("OCc1ccc(N2CCN(Cc3ccc4ccccc4n3)CC2)cc1")
139
>>> measured_value("O=Cc1ccc(N2CCN(Cc3ccc4ccccc4n3)CC2)cc1Cl")
87

Kindly review the next compound as well.
Field Ki (human recombinant dopamine D4.2 receptor (Homo sapiens, UniProt P21917, DEL265-296)), entry `FC(F)(F)c1cc(N2CCN(Cc3ccc4ccccc4n3)CC2)ccc1Cl` : 122

----------
Biological target: human recombinant dopamine D4.2 receptor (Homo sapiens, UniProt P21917, DEL265-296)
Construct: expressed in transfected cells; host or cells: CHO K1
Experiment: Receptor binding assay, D4.2 dopamine receptor ([3H]spiperone competition, CHO K1 cell membranes)
Conditions: 0.2 nM [3H]spiperone, CHO K1 membranes, 60 min, 25° C.; apparent Ki from IC50 (Cheng-Prusoff); read-out: D4 Ki
MEASUREMENT_LABEL: pKi
Scale: negative log10 of molar concentration, which is what pKi denotes.

>>> measured_value("OCc1ccc(N2CCN(Cc3ccc4ccccc4n3)CC2)cc1Br")
7.44
>>> measured_value("OCc1ccc(N2CCN(Cc3cnc4ccccc4c3)CC2)cc1F")
8.06

Recorded pKi (compound `CCCc1cccc(N2CCN(Cc3ccc4ccccc4n3)CC2)c1` ): 7.24

compound `Clc1cccc(N2CCN(Cc3ccc4ccccc4n3)CC2)c1Cl` , pKi observed: 7.23

Noted for `Cc1ccc(N2CCN(Cc3cnc4ccccc4c3)CC2)cc1` : its pKi reads 7.68

Form: compound = `COCc1ccc(N2CCN(Cc3ccc4ccccc4n3)CC2)cc1Cl` ; pKi = 7.50

Lab note: `Cc1ccc(N2CCN(Cc3ccc4ccccc4n3)CC2)cc1Cl` gave pKi of 7.44
